Tested on: SK-MEL-28
RUN DESCRIPTION: Cytotoxicity against human SK-MEL-28 cells after 72 hrs by MTS assay
Assay type: functional, cell-based
CONDITION DESCRIPTION: SK-MEL-28, 72 h
MEASUREMENT LABEL: IC50 (µM)
Write the value in µM as a bare number.

Solved cases (4 shown):
[[record]]
compound = "CC1=C(CO)C(=O)O[C@@H]([C@@H](C)[C@H]2CC[C@H]3[C@@H]4C[C@H]5O[C@]56[C@@H](O)[C@@H](OS(=O)(=O)O)CC(=O)[C@]6(CO)[C@H]4CC[C@]23C)C1 [WITHALONGOLIDE G]"
numeric_value = 4.8

[[record]]
compound = "CC(=O)OCC1=C(C)C[C@H]([C@@H](C)[C@H]2CC[C@H]3[C@@H]4C[C@H]5O[C@]56[C@@H](OC(C)=O)C=CC(=O)[C@]6(CO)[C@H]4CC[C@]23C)OC1=O"
numeric_value = 0.81

[[record]]
compound = "CC1=C(CO[C@@H]2O[C@H](CO)[C@@H](O)[C@H](O)[C@H]2O)C(=O)O[C@@H]([C@@H](C)[C@H]2CC[C@H]3[C@@H]4C[C@H]5O[C@]56[C@@H](O)C=CC(=O)[C@]6(C)[C@H]4CC[C@]23C)C1 [SITOINDOSIDE IX]"
numeric_value = 8.3

[[record]]
compound = "CC1=C(CO)C(=O)O[C@@H]([C@@H](C)[C@H]2CC[C@H]3[C@@H]4C[C@H]5O[C@]56[C@@H](O)C=CC(=O)[C@]6(CO)[C@H]4CC[C@]23C)C1"
numeric_value = 5.1


Turning now to a further record.
[Q] I am curious: what IC50 value has been reported for CC1=C(CO)C(=O)O[C@@H]([C@@H](C)[C@H]2CC[C@H]3[C@@H]4C[C@H]5O[C@]56[C@@H](O)[C@@H](OS(=O)(=O)O)CC(=O)[C@]6(C)[C@H]4CC[C@]23C)C1 ?
[A] 5.1
